STUDY SYSTEM: Light chain myosin kinase (Gallus gallus, UniProt P11799)
Construct: purified from chicken gizzards; from tissue; host or cells: chicken gizzard
RUN DESCRIPTION: myosin light chain kinase, synthetic peptide substrate
Assay type: biochemical, chicken
CONDITION PARAMETERS: 15 μM ATP

- SMILES STRUCTURE: "Cn1cnc2c(NCc3ccccc3)nc(NCCO)nc21"
  IC50: "> 1000 µM"

---

STUDY SYSTEM: Insulin receptor tyrosine kinase (Homo sapiens)
Construct: The kinasic tyrosine domain of the insulin receptor (14) is over-expressed in a baculovirus system; made in house; host or cells: baculovirus system (insect cells)
Sequence (P06213 1023-1298 limits assumed): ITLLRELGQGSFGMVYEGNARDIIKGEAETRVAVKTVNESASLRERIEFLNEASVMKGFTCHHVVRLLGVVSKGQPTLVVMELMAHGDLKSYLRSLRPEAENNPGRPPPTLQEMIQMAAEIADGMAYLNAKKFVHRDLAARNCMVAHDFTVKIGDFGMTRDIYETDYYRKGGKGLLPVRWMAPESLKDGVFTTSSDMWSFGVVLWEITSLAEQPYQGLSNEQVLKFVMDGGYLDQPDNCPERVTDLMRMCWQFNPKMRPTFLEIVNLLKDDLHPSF
RUN DESCRIPTION: insulin receptor tyrosine kinase domain, Raytide phosphorylation
Format: biochemical
CONDITION PARAMETERS: 15 μM ATP

- SMILES STRUCTURE: "Cn1cnc2c(NCc3ccccc3)nc(NCCO)nc21"
  IC50: "4000 µM"

---

STUDY SYSTEM: erk1 (Homo sapiens)
Sequence (P27361 whole entry, species assumed): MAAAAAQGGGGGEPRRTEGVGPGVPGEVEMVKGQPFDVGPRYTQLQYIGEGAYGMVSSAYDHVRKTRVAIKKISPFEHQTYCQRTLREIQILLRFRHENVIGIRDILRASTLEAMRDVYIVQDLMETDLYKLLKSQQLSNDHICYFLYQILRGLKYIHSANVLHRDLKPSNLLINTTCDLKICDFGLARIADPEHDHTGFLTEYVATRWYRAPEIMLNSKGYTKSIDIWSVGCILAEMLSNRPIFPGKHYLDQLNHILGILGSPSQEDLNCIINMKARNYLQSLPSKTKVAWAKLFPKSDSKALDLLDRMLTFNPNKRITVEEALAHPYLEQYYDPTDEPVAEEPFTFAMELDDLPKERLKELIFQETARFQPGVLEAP
RUN DESCRIPTION: biochemical
pIC50: −log10 of the molar value.

- COMPOUND: "Cn1cnc2c(NCc3ccccc3)nc(NCCO)nc21 [olomoucine]"
  STUDY SYSTEM: "erk1 (Homo sapiens)"
  pIC50: 4.30

---

STUDY SYSTEM: cGMP-dependent PK (Bos taurus)
Construct: purified to homogeneity from the smooth muscle of the trachea of bovine origin; from tissue; host or cells: bovine tracheal smooth muscle
Sequence (P00516 1-671): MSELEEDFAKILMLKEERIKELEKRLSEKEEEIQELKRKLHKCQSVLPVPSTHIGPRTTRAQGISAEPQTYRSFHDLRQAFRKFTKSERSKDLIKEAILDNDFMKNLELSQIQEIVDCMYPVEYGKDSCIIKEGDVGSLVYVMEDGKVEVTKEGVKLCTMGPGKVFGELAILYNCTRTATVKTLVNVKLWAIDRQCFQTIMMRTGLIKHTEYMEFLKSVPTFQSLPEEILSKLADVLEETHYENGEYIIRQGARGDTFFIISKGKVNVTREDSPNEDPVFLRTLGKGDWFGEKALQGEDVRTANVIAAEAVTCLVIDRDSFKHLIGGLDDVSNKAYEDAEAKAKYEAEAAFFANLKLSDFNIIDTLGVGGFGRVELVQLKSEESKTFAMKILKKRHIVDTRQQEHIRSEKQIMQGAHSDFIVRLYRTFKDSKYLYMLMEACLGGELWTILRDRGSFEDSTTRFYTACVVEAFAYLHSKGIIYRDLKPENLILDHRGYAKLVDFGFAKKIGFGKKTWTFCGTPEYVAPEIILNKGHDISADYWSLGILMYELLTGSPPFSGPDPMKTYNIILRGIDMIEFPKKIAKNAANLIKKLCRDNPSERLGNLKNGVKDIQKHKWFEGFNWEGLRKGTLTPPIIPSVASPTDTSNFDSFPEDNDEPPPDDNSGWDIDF
RUN DESCRIPTION: cGMP-dependent kinase
Type: biochemical, bovine
CONDITION PARAMETERS: 15 μM ATP; − = no inhibitory effect, highest concentration tested in parentheses

- SMILES STRUCTURE: "Cn1cnc2c(NCc3ccccc3)nc(NCCO)nc21"
  IC50: "> 2000 µM"

---

STUDY SYSTEM: cAMP-dependent PK (Bos taurus, UniProt P00517)
Construct: purified from the bovine heart; from tissue; host or cells: bovine heart
RUN DESCRIPTION: cAMP-dependent kinase catalytic sub-unit
Assay type: biochemical, bovine
CONDITION PARAMETERS: 15 μM ATP

- COMPOUND: "Cn1cnc2c(NCc3ccccc3)nc(NCCO)nc21 [olomoucine]"
  IC50: "> 2000 µM"
